Tested on: EKVX NSCLC
experiment-notes: NCI-60 one-dose screen, 48 h (100 = growth as untreated, 0 = no growth, -100 = all killed)
reported-conditions: 10 µM
About 83,000 compounds went through this panel and 20% of them were active in at least one assay; those are over-represented in the sample as a whole.
measured-parameter: growth (%)
Please reply with the bare figure in % and do not write the unit itself.

Answered cases to consult:
O=c1[nH]cc(/C=N\Nc2ccccc2)c(=O)[nH]1	56.4
S=C1SCN(CCc2ccccc2)CN1CCc1ccccc1	109
N#C/C(=C/N1C(=O)/C(=C/c2ccc([N+](=O)[O-])cc2)SC1=S)c1nc2ccccc2s1	82.3
O=C1C(Cl)=C(Cl)C(Cl)(Cl)C(Cl)C1(Cl)Cl (configuration not stated)	105
Nc1nc(N)c2cc(Sc3ccc4ccccc4c3)ccc2n1	38.2

Find the recorded growth belonging to COc1ccc2c(c1)[nH]c1c(/C=C/c3ccccc3)nccc12 and report it.
62.2

Find the recorded growth belonging to COc1cccc(C(c2cc3c(cc2O)OCO3)N2CCOCC2)c1OC (configuration not stated) and report it.
97.7

Find the recorded growth belonging to O=C(O)c1ccccc1.[Ag] and report it.
103

Find the recorded growth belonging to CC1CCC2(C(=O)O)CCC3(C)C(=CCC4C5(C)CC(O)C(O)C(C)(CO)C5C(O)CC43C)C2C1C (configuration not stated) and report it.
113

###

System: SN12C renal
experiment-notes: NCI-60 one-dose screen, 48 h (100 = growth as untreated, 0 = no growth, -100 = all killed)
reported-conditions: 10 µM
Compounds without any hit were thinned out: in the full panel of roughly 83,000, 20% have a hit.
measured-parameter: growth (%)
Please reply with the bare figure in % and do not write the unit itself.

Answered cases to consult:
Cc1cc(C)c(N2C(=O)CC(Sc3ccccc3N)C2=O)c(C)c1 (configuration not stated)	90.4
Cc1c(-c2ccccc2)[nH]c2ccccc12	114
O=C(NC(=S)Nc1ccccn1)c1ccccc1	97.1

Please provide the recorded growth for O=c1[nH]cc(/C=N\Nc2ccccc2)c(=O)[nH]1 , tested on SN12C renal.
68.7

Please provide the recorded growth for ClCCn1c(CCl)nc2ccc(Cl)cc21 , tested on SN12C renal.
-47

Please provide the recorded growth for Cc1cc(Cl)ccc1NC(=O)/C(Cl)=C1/Sc2ccccc2NC1=O , tested on SN12C renal.
106

Please provide the recorded growth for CN(CC(=O)O)c1ccc(/C=C/c2ccnc3ccccc23)cc1 , tested on SN12C renal.
85.2

Please provide the recorded growth for CC[C@@]1(OC(=O)CN(C)C)C(=O)OCc2c1cc1n(c2=O)Cc2cc3c(N)cccc3nc2-1 , tested on SN12C renal.
7.95

Please provide the recorded growth for CCC(=O)Oc1ccc(/C=N/NC(N)=S)nc1 , tested on SN12C renal.
32.5

Please provide the recorded growth for COc1ccc(N)c2c1C(=O)c1ccccc1C2=O , tested on SN12C renal.
93.9

Please provide the recorded growth for O=C(O)c1ccccc1.[Ag] , tested on SN12C renal.
102

Please provide the recorded growth for CC1CCC2(C(=O)O)CCC3(C)C(=CCC4C5(C)CC(O)C(O)C(C)(CO)C5C(O)CC43C)C2C1C (configuration not stated) , tested on SN12C renal.
96.1

###

Known growth of a selection of compounds
Test system: OVCAR-8 ovarian
experiment-notes: NCI-60 one-dose screen, 48 h (100 = growth as untreated, 0 = no growth, -100 = all killed)
reported-conditions: 10 µM
About 83,000 compounds went through this panel and 20% of them were active in at least one assay; those are over-represented in the sample as a whole.
Please reply with the bare figure in % and do not write the unit itself.

CC[C@@]1(OC(=O)CN(C)C)C(=O)OCc2c1cc1n(c2=O)Cc2cc3c(N)cccc3nc2-1	14.5
COc1ccc2oc(-c3ccc(Cl)cc3)c(N3CCN(C)CC3)c2c1	31.8

Next:
Find the recorded growth belonging to CN(C)c1ccc(/C=C/c2ccnc3ccccc23)cc1N and report it.
75.3

###

Tested on: CCRF-CEM leukemia
experiment-notes: NCI-60 one-dose screen, 48 h
reported-conditions: 10 µM
About 83,000 compounds went through this panel and 20% of them were active in at least one assay; those are over-represented in the sample as a whole. The source made the active and inactive calls. Rule for the calls: active = growth percent below 10; inactive = the rest.
Hello, when you answer, please use one of the following outcomes: 1 (yes) for active, 0 (no) for inactive

In this assay, the call recorded for COc1ccc(C(C#N)=C2C=CC(=NO)C=C2)cc1 was what?
0 (no)

In this assay, the call recorded for O=c1[nH]cc(/C=N\Nc2ccccc2)c(=O)[nH]1 was what?
0 (no)

In this assay, the call recorded for Nc1nc(N)c2cc(Sc3ccc4ccccc4c3)ccc2n1 was what?
0 (no)

###

Test system: NCI-H226 lung
experiment-notes: NCI-60 one-dose screen, 48 h (100 = growth as untreated, 0 = no growth, -100 = all killed)
reported-conditions: 10 µM
About 83,000 compounds went through this panel and 20% of them were active in at least one assay; those are over-represented in the sample as a whole.
Known growth of a selection of compounds
Please reply with the bare figure in % and do not write the unit itself.

Answered cases to consult:
Cc1c(-c2ccccc2)[nH]c2ccccc12	95.3
O=C1C=CC(=O)N1c1ccc(N2C(=O)C=CC2=O)cc1	84.8

Please provide the recorded growth for O=C1c2cccc3cc([N+](=O)[O-])cc(c23)C(=O)N1CCN1CCCC1 , tested on NCI-H226 lung.
-62.2

Please provide the recorded growth for CCC(C)(c1ccc(O)c(C)c1)c1ccc(O)c(C)c1 , tested on NCI-H226 lung.
101

###

System: OVCAR-5 ovarian
experiment-notes: NCI-60 one-dose screen, 48 h (100 = growth as untreated, 0 = no growth, -100 = all killed)
reported-conditions: 10 µM
Compounds without any hit were thinned out: in the full panel of roughly 83,000, 20% have a hit.
measured-parameter: growth (%)
Please reply with the bare figure in % and do not write the unit itself.

Cc1cc(C)c(N2C(=O)CC(Sc3ccccc3N)C2=O)c(C)c1 (configuration not stated)	118
Cc1c(-c2ccccc2)[nH]c2ccccc12	99

Next:
Find the recorded growth belonging to O=C(CNS(=O)(=O)Cc1ccccc1)NNc1ccccc1 and report it.
68.6

###

Test system: A498 renal
experiment-notes: NCI-60 one-dose screen, 48 h (100 = growth as untreated, 0 = no growth, -100 = all killed)
reported-conditions: 10 µM
This is part of a sample that, as a whole, favours compounds with a hit. Of some 83,000 tested, about 20% had one in any assay.
Note: every record was labeled by where its growth sits among low class = under 50%, middle class = from 50% up to 80%, high class = 80% and over

O=C1c2cccc3cc([N+](=O)[O-])cc(c23)C(=O)N1CCN1CCCC1	low class
COc1ccc2oc(-c3ccc(Cl)cc3)c(N3CCN(C)CC3)c2c1	middle class
ClCCn1c(CCl)nc2ccc(Cl)cc21	low class

Lab note: which band did C=C1N(C)c2ccc(Cl)cc2C1(C)C land in?
high class

Lab note: which band did O=C1C(Cl)=C(Cl)C(Cl)(Cl)C(Cl)C1(Cl)Cl (configuration not stated) land in?
high class

###

Test system: SK-MEL-2 melanoma
experiment-notes: NCI-60 one-dose screen, 48 h
reported-conditions: 10 µM
This is part of a sample that, as a whole, favours compounds with a hit. Of some 83,000 tested, about 20% had one in any assay. Activity calls are given as the source filed them. Rule for the calls: active = growth percent below 10; inactive = the rest.
Hello, when you answer, please use one of the following outcomes: active, inactive

Some solved entries appear below for comparison.
CN(C)CCNc1cccc2sc3ccc(O)cc3c(=O)c12	inactive
COc1cc(N)ccc1Nc1c2ccccc2nc2ccccc12	inactive
Cc1cc(O)c2c(c1O)C(=O)C13C(=C2O)C(=O)C2C(O)C1C1C(O)C3C(=O)C3=C(O)c4c(O)cc(C)c(O)c4C(=O)C321 (centres undefined)	active

In this assay, the call recorded for Cn1ncc2cc3c(Nc4ccc(Cl)cc4)cccc3nc21 was what?
inactive

In this assay, the call recorded for O=C1C=CC(=O)N1c1ccc(N2C(=O)C=CC2=O)cc1 was what?
inactive

In this assay, the call recorded for O=[N+]([O-])c1cc(S(=O)(=O)Nc2ccccc2)ccc1Cl was what?
inactive

In this assay, the call recorded for COc1cccc(C(c2cc3c(cc2O)OCO3)N2CCOCC2)c1OC (centres undefined) was what?
inactive

In this assay, the call recorded for Cc1c(-c2ccccc2)[nH]c2ccccc12 was what?
inactive

In this assay, the call recorded for C=C1N(C)c2ccc(Cl)cc2C1(C)C was what?
inactive

In this assay, the call recorded for S=C1SCN(CCc2ccccc2)CN1CCc1ccccc1 was what?
inactive

In this assay, the call recorded for CC[C@@]1(OC(=O)CN(C)C)C(=O)OCc2c1cc1n(c2=O)Cc2cc3c(N)cccc3nc2-1 was what?
active

In this assay, the call recorded for CN(CC(=O)O)c1ccc(/C=C/c2ccnc3ccccc23)cc1 was what?
inactive

In this assay, the call recorded for CC1CCC2(C(=O)O)CCC3(C)C(=CCC4C5(C)CC(O)C(O)C(C)(CO)C5C(O)CC43C)C2C1C (centres undefined) was what?
inactive

In this assay, the call recorded for O=Nc1ccc(Nc2ccccc2)cc1 was what?
inactive

In this assay, the call recorded for COc1ccc2c(c1)[nH]c1c(/C=C/c3ccccc3)nccc12 was what?
inactive

In this assay, the call recorded for O=C(O)c1ccccc1.[Ag] was what?
inactive

In this assay, the call recorded for ClCCn1c(CCl)nc2ccc(Cl)cc21 was what?
active
